target: recombinant human PDE-10 enzyme (PDE-10A) (Homo sapiens (Human)); experiment: IMAP PDE Fluorescence Polarization assay, human PDE-10 inhibition (enzyme assay); format: biochemical; conditions: recombinant human PDE-10, fluorescein-labeled cAMP/cGMP substrate, 40 min at 37° C.
Sequence (Q9Y233 whole entry): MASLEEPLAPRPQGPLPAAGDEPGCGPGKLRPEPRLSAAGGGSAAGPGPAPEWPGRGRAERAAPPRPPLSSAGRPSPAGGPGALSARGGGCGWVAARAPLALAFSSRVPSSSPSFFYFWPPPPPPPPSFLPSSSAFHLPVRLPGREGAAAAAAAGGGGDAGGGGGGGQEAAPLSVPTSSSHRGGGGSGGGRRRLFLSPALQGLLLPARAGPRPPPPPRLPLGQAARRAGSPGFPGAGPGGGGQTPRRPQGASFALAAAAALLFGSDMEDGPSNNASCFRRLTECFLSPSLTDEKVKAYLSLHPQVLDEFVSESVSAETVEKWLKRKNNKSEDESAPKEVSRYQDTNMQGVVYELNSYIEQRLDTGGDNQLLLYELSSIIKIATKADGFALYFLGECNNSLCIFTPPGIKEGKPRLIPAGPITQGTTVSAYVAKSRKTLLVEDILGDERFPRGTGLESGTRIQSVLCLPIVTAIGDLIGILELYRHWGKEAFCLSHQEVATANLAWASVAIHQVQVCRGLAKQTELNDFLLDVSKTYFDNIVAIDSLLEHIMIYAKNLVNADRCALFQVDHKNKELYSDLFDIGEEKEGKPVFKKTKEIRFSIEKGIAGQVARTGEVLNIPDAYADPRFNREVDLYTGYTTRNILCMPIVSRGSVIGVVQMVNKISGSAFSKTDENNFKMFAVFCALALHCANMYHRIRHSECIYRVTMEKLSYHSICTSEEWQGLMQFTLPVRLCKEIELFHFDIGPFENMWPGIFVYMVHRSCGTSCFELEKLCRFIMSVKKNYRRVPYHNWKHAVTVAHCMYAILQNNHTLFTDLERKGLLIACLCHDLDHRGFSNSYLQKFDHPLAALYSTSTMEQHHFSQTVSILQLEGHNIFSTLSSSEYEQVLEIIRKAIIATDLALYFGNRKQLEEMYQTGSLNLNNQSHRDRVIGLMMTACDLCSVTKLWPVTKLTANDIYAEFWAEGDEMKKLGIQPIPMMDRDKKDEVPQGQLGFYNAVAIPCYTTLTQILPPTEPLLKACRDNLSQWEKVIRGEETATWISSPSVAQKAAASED
pIC50: −log10 of the molar value.
recorded endpoint: pIC50

{"compound structure": "Cc1ncc(C)n2nc(CCc3ccc4ccc5ccccc5c4n3)nc12", "reported": "6.00 to 6.30"}
{"compound structure": "Cn1cc(-c2ccsc2)nc1CCc1ccc2ccccc2n1", "reported": "> 6.30"}
{"compound structure": "c1ccc2nc(CCc3nc4c(ccc5ncccc54)[nH]3)cnc2c1", "reported": "> 6.30"}
{"compound structure": "Cn1cc(-c2cccnc2)nc1CCc1cnc2ccccc2n1", "reported": "> 6.30"}
{"compound structure": "c1ccc(-c2c[nH]c(COc3cnc4ccccc4n3)n2)cc1", "reported": "> 6.30"}
{"compound structure": "Cn1cc(-c2ccccc2)nc1CCc1cccc(-n2ccnc2)n1", "reported": "5.00 to 6.00"}
{"compound structure": "O=c1[nH]c(CCc2nc(-c3cccc(F)c3)c[nH]2)nc2ccccc12", "reported": "> 6.30"}
{"compound structure": "O=c1[nH]c(CCc2cc(-c3ccccc3)no2)nc2ccccc12", "reported": "< 5.00"}
{"compound structure": "O=c1[nH]c(CCc2nc(-c3cc4ccccc4o3)c[nH]2)nc2ccccc12", "reported": "5.00 to 6.00"}
{"compound structure": "O=c1[nH]c(CCc2nc(-c3ccccc3)c(-c3ccccc3)o2)nc2ccccc12", "reported": "5.00 to 6.00"}
{"compound structure": "COc1cccc2ccc(CCc3nc4c5cccnc5ccc4n3C)nc12", "reported": "> 6.30"}
{"compound structure": "Cc1cnc(C)n2nc(CCc3ccc4ccccc4n3)nc12", "reported": "> 6.30"}
{"compound structure": "Cc1ncc(C)n2nc(CCc3ccc4ccc5cccnc5c4n3)nc12", "reported": "> 6.30"}
{"compound structure": "Cc1ncc(C)n2nc(CCc3cnc4ccccc4n3)nc12", "reported": "> 6.30"}
{"compound structure": "Cn1c(CCc2cnc3c(F)ccc(F)c3n2)nc2c3cccnc3ccc21", "reported": "> 6.30"}
{"compound structure": "Cc1c(CCc2ccc3cc(C(F)(F)F)cnc3n2)nc2c3cccnc3ccn12", "reported": "6.00 to 6.30"}
{"compound structure": "Cc1ncc(C)n2nc(CCc3ccc4cccnc4n3)nc12", "reported": "> 6.30"}
{"compound structure": "Cn1cc(-c2ccsc2)nc1CCc1cnc2ccccc2n1", "reported": "> 6.30"}
{"compound structure": "O=c1[nH]c(CCc2nc(-c3cccc4cccnc34)c[nH]2)nc2ccccc12", "reported": "6.00 to 6.30"}
{"compound structure": "O=c1[nH]c(CCc2nc(-c3ccc(Cl)cc3)c[nH]2)nc2ccccc12", "reported": "5.00 to 6.00"}
{"compound structure": "Cn1cc(-c2ccccc2)nc1CCc1nc2ccccc2c(=O)[nH]1", "reported": "< 5.00"}
{"compound structure": "Cn1c(CCc2cnc3c(C(F)(F)F)ccc(C(F)(F)F)c3n2)nc2c3cccnc3ccc21", "reported": "> 6.30"}
{"compound structure": "Cn1cc(-c2ccncc2)nc1CCc1cnc2ccccc2n1", "reported": "< 5.00"}
{"compound structure": "Cc1ncc(C)n2nc(CCc3ccc4ccc(Cl)c(Cl)c4n3)nc12", "reported": "6.00 to 6.30"}
{"compound structure": "Cc1ccnc2ccc(CCc3nc4c5cccnc5ccc4n3C)nc12", "reported": "> 6.30"}
